Test system: voltage-gated sodium channel (site 1, [3H]Saxitoxin binding)
Parameters: species or system rat
MEASUREMENT_LABEL: % inhibition (%)
Number only, in %; omit the unit.

Consider the molecule Cl.N=c1n(CCN2CCCCC2)c2ccccc2n1CC(O)COc1ccc(Cl)cc1 (racemic) and give its measured % inhibition.
24

% inhibition lookup needed for Cl.Cn1c(=N)n(CC(O)c2ccc(Cl)c(Cl)c2)c2ccccc21 (stereo not shown) , thanks.
46

Query (molecule): CCN(CC)CCn1c(=N)n(CC(O)c2ccc(C)cc2)c2ccccc21.Cl (stereo not shown) ; field requested: % inhibition
17

* * *

Target: voltage-gated sodium channel (site 1, [3H]Saxitoxin binding)
pIC50: −log10 of the molar value.
The label depends only on pIC50: 1 (yes) if it is at least 4, 0 (no) if it is smaller.

Quick check, pIC50 >= 4? Cl.N=c1n(Cc2ccccc2)c2ccccc2n1CC(O)c1ccccc1 (racemic)
1 (yes)

Decide: pIC50 of Cl.N=c1n(Cc2ccccc2)c2ccccc2n1CC(O)c1ccc(Cl)c(Cl)c1 (racemic) >= 4?
1 (yes)

Check if pIC50 >= 4 (inclusive). Item: Cc1ccc(Cn2c(=N)n(CC(O)c3ccc(Cl)c(Cl)c3)c3ccccc32)cc1.Cl (centres unmarked)
0 (no)

Threshold query (pIC50 >= 4) on Br.CCCCCCCCn1c(=N)n(CC(O)COc2ccccc2)c2ccccc21 (centres unmarked)
1 (yes)

Record Br.N=c1n(Cc2ccccc2)c2ccccc2n1CC(O)COCc1ccccc1 (centres unmarked) ; criterion: pIC50 no lower than 4. Met?
1 (yes)

* * *

Test system: voltage-gated sodium channel (site 1, [3H]Saxitoxin binding)
Parameters: species or system rat
Hi there, I'd appreciate the recorded % inhibition for every entry that follows.
Respond with the bare value in %.

Given the molecule Br.COc1ccc(Cn2c(=N)n(CC(O)COc3ccccc3)c3ccccc32)cc1 (racemic) , what is its reported % inhibition?
17

I'd like to know its % inhibition. The molecule in question is Cc1ccc(Cn2c(=N)n(CC(O)COc3ccccc3)c3ccccc32)cc1.Cl (racemic)
47

State the recorded % inhibition for this entry: COc1ccc(C(O)Cn2c(=N)n(C)c3ccccc32)cc1.Cl (racemic)
17

Form field: reported % inhibition of Cl.N=c1n(CCN2CCCCC2)c2ccccc2n1CC(O)COc1ccccc1 (racemic)
14

Consider the molecule shown here: Br.N=c1n(Cc2ccc(F)cc2)c2ccccc2n1CC(O)COc1ccccc1 (racemic) What is its recorded % inhibition?
26

Using the record for Cl.N=c1n(Cc2ccccc2)c2ccccc2n1CC(O)c1ccccc1 (racemic) , report its % inhibition.
38

What does the data say about its % inhibition? Entry: C=CCn1c(=N)n(CC(O)C(C)(C)C)c2ccccc21.Cl (racemic)
22

If you can, please state the reported % inhibition value of Br.CCCCCCCCn1c(=N)n(CC(O)COc2ccccc2)c2ccccc21 (centres unmarked) .
20

* * *

System: voltage-gated sodium channel (site 1, [3H]Saxitoxin binding)
Design: species or system rat
Kindly state % inhibition for each of the entries shown.

I would be grateful if you could share the reported % inhibition for Cl.N=c1n(CCN2CCCCC2)c2ccccc2n1CC(O)c1cccs1 (stereo not drawn) .
22%

Suppose we examine the compound Cl.N=c1n(Cc2ccc(Cl)cc2)c2ccccc2n1CC(O)COc1ccccc1 (stereo not drawn) ; what % inhibition value has been reported?
16%

Given the compound C=CCn1c(=N)n(CC(O)c2ccc(C)cc2)c2ccccc21.Cl (racemic) , what is its reported % inhibition?
33%

I have this compound here, Cc1ccc(Cn2c(=N)n(CC(O)c3ccc(Cl)c(Cl)c3)c3ccccc32)cc1.Cl (stereo not drawn) , and I need its recorded % inhibition.
48%

What value of % inhibition has been reported for the following compound? COc1ccc(C(O)Cn2c(=N)n(CCN3CCCCC3)c3ccccc32)cc1.Cl (stereo not drawn)
28%

Return reported % inhibition; argument: CCn1c(=N)n(CC(O)c2cccs2)c2ccccc21.Cl (stereo not drawn)
11%

Which value of % inhibition has been reported for Cl.N=c1n(Cc2ccccc2)c2ccccc2n1CC(O)c1ccc(Cl)cc1 (stereo not drawn) in the records?
51%

Give the measured % inhibition of CN(C)CCn1c(=N)n(CC(O)c2ccc(Cl)c(Cl)c2)c2ccccc21.Cl (racemic) .
36%

* * *

System: voltage-gated sodium channel (site 1, [3H]Saxitoxin binding)
Design: species or system rat
Tag: MET if measured % inhibition is not below 20%, NOT MET if it is.

Evaluate CCOc1ccc(C(O)Cn2c(=N)n(CCN3CCCCC3)c3ccccc32)cc1.Cl (racemic) : % inhibition at minimum 20%?
MET

Can Cl.N=c1n(Cc2ccc(Cl)cc2)c2ccccc2n1CC(O)COc1ccc(Cl)cc1 (stereo not shown) be said to have % inhibition at or above 20%?
NOT MET

# bool: % inhibition of CCCn1c(=N)n(CC(O)c2ccccc2)c2ccccc21.Cl (stereo not shown) >= 20%
MET

Determine whether this compound has % inhibition no lower than 20%: CC(O)Cn1c(=N)n(Cc2ccccc2)c2ccccc21.Cl (stereo not shown)
NOT MET

Tell me whether % inhibition is at least 20% here: CCCCn1c(=N)n(CC(O)c2ccccc2)c2ccccc21.Cl (stereo not shown)
NOT MET

Reported % inhibition at or above 20%? Cl.N=c1n(Cc2ccccc2)c2ccccc2n1CC(O)COc1ccc(Cl)cc1 (stereo not shown)
MET

I'd appreciate it if you could say whether Cl.N=c1n(Cc2ccccc2)c2ccccc2n1CC(O)c1cccs1 (racemic) has % inhibition at least equal to 20%.
MET

Is it the case that Cl.Cn1c(=N)n(CC(O)COc2ccccc2)c2ccccc21 (racemic) has % inhibition reaching or exceeding 20%?
MET

Form field: % inhibition at least 20%? Entry: C=CCn1c(=N)n(CC(O)c2ccc(Br)cc2)c2ccccc21.Cl (racemic)
MET

Is % inhibition for C=CCn1c(=N)n(CC(O)COc2ccc(Cl)cc2)c2ccccc21.Cl (racemic) at or above 20%?
MET

Confirm if % inhibition reported for the compound Br.CCCCCCCCCCCn1c(=N)n(CC(O)COc2ccccc2)c2ccccc21 (racemic) is 20% or above.
MET

* * *

Test system: voltage-gated sodium channel (site 1, [3H]Saxitoxin binding)
Design: species or system rat
Threshold rule: % inhibition greater than or equal to 30% is TRUE; below that, FALSE.

In plain terms: is recorded % inhibition at least 30% for CCn1c(=N)n(CC(O)COc2ccccc2)c2ccccc21.Cl (centres unmarked) [Compound 19] ?
FALSE

Threshold query (% inhibition >= 30%) on Br.N=c1n(Cc2ccccc2)c2ccccc2n1CC(O)Cc1ccccc1 (racemic) [Compound 77]
FALSE

hey, is % inhibition for this one >= 30%? CCn1c(=N)n(CC(O)COc2ccc(Cl)cc2)c2ccccc21.Cl (racemic) [Compound 21]
FALSE

Check the entry COc1ccc(C(O)Cn2c(=N)n(Cc3ccccc3)c3ccccc32)cc1.Cl (racemic) [Compound 47] : does % inhibition equal or exceed 30%?
TRUE

Please tell me: is the molecule CCn1c(=N)n(CC(O)c2ccc(Cl)c(Cl)c2)c2ccccc21.Cl (centres unmarked) [Compound 9] at or over 30% in terms of % inhibition?
TRUE

Evaluate Cl.Cn1c(=N)n(CC(O)C23CC4CC(CC(C4)C2)C3)c2ccccc21 (centres unmarked) [Compound 23] : % inhibition at minimum 30%?
FALSE

Entry Cc1ccc(Cn2c(=N)n(CC(O)COc3ccc(Cl)cc3)c3ccccc32)cc1.Cl (centres unmarked) [Compound 52] : is its % inhibition no less than 30%?
TRUE

Entry CC(C)(C)c1ccc(Cn2c(=N)n(CC(O)COc3ccccc3)c3ccccc32)cc1.Cl (centres unmarked) [Compound 12] : is its % inhibition no less than 30%?
TRUE

In plain terms: is recorded % inhibition at least 30% for CCCCn1c(=N)n(CC(O)COc2ccc(Cl)cc2)c2ccccc21.Cl (racemic) [Compound 10] ?
TRUE

Is % inhibition at least 30%? Consider CCCn1c(=N)n(CC(O)COc2ccc(Cl)cc2)c2ccccc21.Cl (centres unmarked) [Compound 29]
FALSE

Determine whether measured % inhibition meets or exceeds 30% for CCCn1c(=N)n(CC(O)c2ccc(Cl)cc2)c2ccccc21.Cl (racemic) [Compound 48]
TRUE

Is % inhibition for Cl.N=c1n(CCN2CCOCC2)c2ccccc2n1CC(O)c1cccs1 (centres unmarked) [Compound 16] at or above 30%?
FALSE

Dear colleague, could you confirm whether Br.N=c1n(Cc2ccccc2)c2ccccc2n1CC(O)COCc1ccccc1 (centres unmarked) [Compound 71] has % inhibition at or above 30%?
TRUE

Please indicate if the recorded % inhibition for Cl.N=c1n(Cc2ccccc2)c2ccccc2n1CC(O)c1ccc(Cl)c(Cl)c1 (racemic) [Compound 2] meets or exceeds 30%.
TRUE

# bool: % inhibition of C=CCn1c(=N)n(CC(O)c2ccc(OCC)cc2)c2ccccc21.Cl (centres unmarked) [Compound 49] >= 30%
TRUE

For this molecule, is measured % inhibition 30% or higher? CCCCn1c(=N)n(CC(O)COc2ccccc2)c2ccccc21.Cl (racemic) [Compound 8]
TRUE

Textbook exercise: given the entry Cl.N=c1n(CCN2CCOCC2)c2ccccc2n1CC(O)c1ccco1 (racemic) [Compound 25] , state whether its % inhibition is greater than or equal to 30%.
FALSE

Textbook exercise: given the entry CC(C)(C)C(O)Cn1c(=N)n(CCN2CCCCC2)c2ccccc21.Cl (racemic) [Compound 69] , state whether its % inhibition is greater than or equal to 30%.
FALSE

Entry Br.N=c1n(Cc2ccccc2)c2ccccc2n1CC(O)COc1ccccc1 (centres unmarked) [Compound 3] : is its % inhibition no less than 30%?
TRUE

Answer whether % inhibition of CCN(CC)CCn1c(=N)n(CC(O)c2ccc(Cl)c(Cl)c2)c2ccccc21.Cl (centres unmarked) [Compound 42] is greater than or equal to 30%.
FALSE

Confirm if % inhibition reported for the molecule CCCn1c(=N)n(CC(O)COc2ccccc2)c2ccccc21.Cl (centres unmarked) [Compound 20] is 30% or above.
FALSE

Exam item: decide whether the reported % inhibition for C=CCn1c(=N)n(CC(O)COc2ccccc2)c2ccccc21.Cl (centres unmarked) [Compound 41] is at least 30%.
FALSE
